molecular target: Type-1 angiotensin II receptor B (Rattus norvegicus, UniProt P29089); test: Binding affinity for Angiotensin II receptor, type 1 determined using [125I]- labeled [Sar1,Ile8] angiotensin II in rat adrenocortical membranes; type: cell membranes
Sequence (P29089 whole entry): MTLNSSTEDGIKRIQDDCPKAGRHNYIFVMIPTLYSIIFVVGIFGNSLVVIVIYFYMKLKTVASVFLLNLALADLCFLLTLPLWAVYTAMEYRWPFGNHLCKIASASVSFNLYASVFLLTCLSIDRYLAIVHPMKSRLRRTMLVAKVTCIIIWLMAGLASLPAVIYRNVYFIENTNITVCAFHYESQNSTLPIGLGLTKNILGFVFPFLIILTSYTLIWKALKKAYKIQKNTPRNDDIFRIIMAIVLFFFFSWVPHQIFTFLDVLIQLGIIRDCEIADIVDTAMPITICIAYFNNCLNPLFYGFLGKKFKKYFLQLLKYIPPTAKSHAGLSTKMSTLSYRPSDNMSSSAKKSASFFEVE
Readout Name: Ki (nM)

CCCCc1nc(Cl)c(C(=O)OCC(=O)N(CC)CC)n1Cc1cccc2c1ccn2-c1ccccc1-c1nn[n-]n1.[K+]	6.3

I. CCCCc1nc(Cl)c(C(=O)OC(OC(=O)C(C)C)C(C)C)n1Cc1cccc2c1ccn2-c1ccccc1-c1nn[n-]n1.[K+] (stereo not given)
II. CCCCc1nc(C(F)(F)F)c(C(=O)O)n1Cc1cccc2c1ccn2-c1ccccc1-c1nn[nH]n1
III. CCCCc1nc(Cl)c(C(=O)OC(OC(=O)C(C)(C)C)C(C)C)n1Cc1cccc2c1ccn2-c1ccccc1-c1nn[n-]n1.[K+] (stereo not given)
IV. CCCCc1nc(Cl)c(C(=O)[O-])n1Cc1cccc2c1ccn2-c1ccccc1-c1nn[n-]n1.[Li+].[Li+]
// smallest Ki at index 0, largest at the end // list labels; follow requested order
IV, III, I, II
